These entries and their values trace back to ChEMBL document CHEMBL2384945.

- assay: Apparent half life in mouse at 100 mg/kg, po
- Type: ADME, organism-based
- Design: dose 100 mg/kg, route oral
- conditions: in vivo, read-out: t1/2(app) (converted)
reported-property: half-life (h)
Express your answer in h, writing the number without its unit.

half-life in this record for COc1ccc(C2=N[C@@H](c3ccc(Cl)cc3)[C@@H](c3ccc(Cl)cc3)N2C(=O)N2CCNC(=O)C2)c(OC(C)C)c1 [NUTLIN-3] : 2.6

###

- assay: Cmax in mouse at 50 mg/kg, po
- Format: ADME, organism-based
- Parameters: dose 50 mg/kg, route oral
- conditions: in vivo
reported-property: Cmax (ng/mL)
Record the value in ng/mL, omitting the unit from your answer.

Would you please look over these solved cases?
[[record]]
compound = "CCOc1cc(C(C)(C)C)ccc1C1=N[C@@](C)(c2ccc(Cl)cc2)[C@@](C)(c2ccc(Cl)cc2)N1C(=O)N1CCN(CC(=O)N2CCCC2)CC1"
result_number = 2300

[[record]]
compound = "CCOc1cc(C(C)(C)C)ccc1C1=N[C@@](C)(c2ccc(Cl)cc2)[C@@](C)(c2ccc(Cl)cc2)N1C(=O)N1CCN(C(C)=O)CC1"
result_number = 19600

[[record]]
compound = "CCOc1cc(C(C)(C)C)ccc1C1=N[C@@](C)(c2ccc(Cl)cc2)[C@@](C)(c2ccc(Cl)cc2)N1C(=O)N1CCN(CCCS(C)(=O)=O)CC1 [RO-5045337]"
result_number = 15500


The compound identified as CCOc1cc(C(C)(C)C)ccc1C1=N[C@@](C)(c2ccc(Cl)cc2)[C@@](C)(c2ccc(Cl)cc2)N1C(=O)N1CCN(CCNC(C)=O)CC1 registered its Cmax at 12000
